The measured values listed here are drawn from paper PMC9449982.

- assay: Amorphous solubility determination, ultracentrifugation
- Format: physicochemical
- particulars: phosphate buffer with HPMCAS, pH 6.5, aqueous buffer, kinetic from dmso stock
Kindly state solubility at 15 min for each of the entries shown.
Enter your answer as a number in µg/mL; do not include the unit.

Query string: Return solubility at 15 min (reported value) for this compound: COC(=O)N[C@H](C(=O)N[C@@H](Cc1ccccc1)[C@@H](O)CN(Cc1ccc(-c2ccccn2)cc1)NC(=O)[C@@H](NC(=O)OC)C(C)(C)C)C(C)(C)C [atazanavir]
Result string: 37.7

Query string: Return solubility at 15 min (reported value) for this compound: Clc1ccccc1C(c1ccccc1)(c1ccccc1)n1ccnc1 [clotrimazole]
Result string: 7.7

Query string: Return solubility at 15 min (reported value) for this compound: Cc1cccc(C)c1OCC(=O)N[C@@H](Cc1ccccc1)[C@@H](O)C[C@H](Cc1ccccc1)NC(=O)[C@H](C(C)C)N1CCCNC1=O [lopinavir]
Result string: 19.3
